Data provenance: patent US20200147199A1

# key: entry, value: EC50
Target: T1, ZIKV E Domain III ([..]), polyhistidine-AviTag, produced in HEK-293-6E cells (ZIKV)
T1 construct: also called ZEDIII; ZIKV EDIII
Assay: ELISA on coated ZIKV EDIII

Binder	EC50
Z044 (BRA138_46) (antibody, V domains shown) VH: QVQLVQSGAEVKKPGASVKVSCKASGYTFTSTYIHWVRQAPGQGLEWMGIINPSSSNTNYAQKFQGRVTMTRDTSTSTVYMELSSLRSEDTAVYYCARDFGGYSSSSVSDAFDIWGQGTMVTVSS VL: QSALTQPASVSGSPGQSITISCTGTSSDVGSFNLVSWYQQHPGKAPKLIIYEVSKRPSGVSNRFSGSKSGNTASLTISGLQAEDEVHYYCCSYAGSSRFVFGTGTKVTVL	> 10 µg/mL
Z040 (BRA12_81) (antibody, V domains shown) VH: EVQLLESGGGLVQPGGSLRLSCAASGFTFSTYAMSWVRQAPGKGLEWVSAISGSGRSTYYADSVKGRFTISRDNSKNTLYLQMNSLRGEDTAVYYCAKSSGGHNWNYVDYYYGMDVWGQGTTVTVSS VL: DIQLTQSPSFLSASVGDRVTITCRASQGISSYLAWYQQKPGKAPKLLIYAASTLQSGVPSRFSGSGSGTEFTLTISSLQPEDFATYYCQQLNSYPVTFGPGTKVDIK	> 10 µg/mL
Z032 (BRA112_24) (antibody, V domains shown) VH: EVQLLESGGRLVQPGGSLTLSCAASGFPFSTYAMSWLRQAPGKGLEWVSGITGDSGSTYYAASVKGRFTISRDNSKNTLYLQMNSLTADDTAVYYCAKDRLHSGLGELFSYWGQGTLVTVSS VL: DIQMTQSPSTLSASVGDRVNITCRASQSINQWLAWYQQKPGKAPKFLMYKASTLETGVPSRFSGSGSGTEFTLTISSLQPDDFATYYCQHYFSYPWTFGQGTKVEIK	0.0195 µg/mL
Z054 (BRA138_94) (antibody, V domains shown) VH: QLQLQESGPRLVKPSETLFLTCTVSGDSISSSSYFWGWIRQPPGKGLEWIGSISYSGSTYYNPSLKSRVTISVDTSKNQFSLKLSSVTAADTVVYYCAKHLYSSSWNIGSSFDSWGPGTLVTVSS VL: EIVLTQSPATLSLSPGERATLSCRASQSVSIYLAWYQQKPGQAPRLLIYDASSRATGIPARFSGSGSGTDFTLTISSLEPEDFAVYYCQQRSNWPVYTFGQGTKVEIK	> 10 µg/mL
